- Assayed Target: VIM-1 (Pseudomonas aeruginosa (strain ATCC 15692 / DSM 22644 / CIP 104116 / JCM 14847 / LMG 12228 / 1C / PRS 101 / PAO1), UniProt A0A0F7KYQ8)
- Assay Remarks: biochemical
- Test Settings: fluorescence assay, CCF2-FA substrate, 30 pM enzyme, 2 hours at 25° C.; read-out: VIM-1 IC50
Exercise: for every item that follows, state its recorded pIC50.
Answer as the number alone; pIC50 is minus log10 of concentration in mol/L.

Qu. # get_value(readout='pIC50', item= NCCn1nnc2c(-c3ccc(S(=O)(=O)N[C@@H]4CCNC4)c(S(N)(=O)=O)c3-c3nn[nH]n3)cccc21 )
Ans. 9.98

Qu. # get_value(readout='pIC50', item= CN1CCOC(CNS(=O)(=O)c2ccc(-c3cccc4sc(N)nc34)c(-c3nnn[nH]3)c2S(N)(=O)=O)C1 (stereo not shown) )
Ans. 9.39

Qu. # get_value(readout='pIC50', item= C[C@H](N)CC(=O)NS(=O)(=O)c1ccc(-c2cccc3[nH]c(N)nc23)c(-c2nn[nH]n2)c1S(N)(=O)=O )
Ans. 8.91

Qu. # get_value(readout='pIC50', item= Nc1nc2c(-c3ccc(S(=O)(=O)NCC4(N)CCOCC4)c(S(N)(=O)=O)c3-c3nnn[nH]3)cccc2s1.O=CO [Example 115, formate] )
Ans. 9.41

Qu. # get_value(readout='pIC50', item= Nc1nc2c(-c3ccc(S(=O)(=O)N[C@@H]4CNC[C@@H]4F)c(S(N)(=O)=O)c3-c3nnn[nH]3)cccc2s1 )
Ans. 9.39

Qu. # get_value(readout='pIC50', item= CN1CCC(N(C)S(=O)(=O)c2ccc(-c3cccc4sc(N)nc34)c(-c3nnn[nH]3)c2S(N)(=O)=O)C1 (stereo not shown) )
Ans. 8.44

Qu. # get_value(readout='pIC50', item= Nc1ccc(-c2ccc(S(=O)(=O)NC[C@H]3CCCN3)c(S(N)(=O)=O)c2-c2nn[nH]n2)cn1 )
Ans. 9.57

* * *

- Assayed Target: NDM-1 (Klebsiella pneumoniae)
- Sequence (C7C422 whole entry, looked up, species assumed): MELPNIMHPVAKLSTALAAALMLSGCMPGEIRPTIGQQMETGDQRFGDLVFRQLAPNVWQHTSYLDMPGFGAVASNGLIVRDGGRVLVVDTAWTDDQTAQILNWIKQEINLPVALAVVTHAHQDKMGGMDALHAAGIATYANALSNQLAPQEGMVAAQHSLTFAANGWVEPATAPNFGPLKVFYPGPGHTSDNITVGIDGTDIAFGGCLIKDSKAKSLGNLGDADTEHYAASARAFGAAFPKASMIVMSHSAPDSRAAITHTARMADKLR
- Assay Remarks: biochemical
- Type: biochemical
- Test Settings: fluorescence assay, CCF2-FA substrate, 1 pM enzyme, 2 hours at 25° C.; read-out: NDM-1 IC50
Exercise: for every item that follows, state its recorded IC50.
Value expressed in pM; do not type the unit.

Qu. # get_value(readout='IC50', item= Nc1nc2c(-c3ccc(S(=O)(=O)N[C@@H]4CNC[C@@H]4O)c(S(N)(=O)=O)c3-c3nnn[nH]3)cccc2[nH]1 )
Ans. 80.3

Qu. # get_value(readout='IC50', item= NCc1nc2c(-c3ccc(S(=O)(=O)N[C@@H]4CCNC4)c(S(N)(=O)=O)c3-c3nn[nH]n3)cccc2[nH]1 )
Ans. 72.1

Qu. # get_value(readout='IC50', item= NC[C@@H](CO)NS(=O)(=O)c1ccc(-c2ccnc(N)c2)c(-c2nn[nH]n2)c1S(N)(=O)=O )
Ans. 178

Qu. # get_value(readout='IC50', item= Nc1ccc(-c2ccc(S(=O)(=O)NC3CC(N)C3)c(S(N)(=O)=O)c2-c2nn[nH]n2)cn1 (stereo not shown) )
Ans. 92.7

Qu. # get_value(readout='IC50', item= CN(C)CCNS(=O)(=O)c1ccc(-c2cccc3sc(N)nc23)c(-c2nnn[nH]2)c1S(N)(=O)=O )
Ans. 34.8

Qu. # get_value(readout='IC50', item= NCCNS(=O)(=O)c1ccc(-c2cc(F)cc3[nH]c(N)nc23)c(-c2nnn[nH]2)c1S(N)(=O)=O )
Ans. 47.2

Qu. # get_value(readout='IC50', item= CC1(NS(=O)(=O)c2ccc(-c3ccc(N)nc3)c(-c3nn[nH]n3)c2S(N)(=O)=O)CNC1.Cl.Cl )
Ans. 131

* * *

- Assayed Target: VIM-1 (Pseudomonas aeruginosa (strain ATCC 15692 / DSM 22644 / CIP 104116 / JCM 14847 / LMG 12228 / 1C / PRS 101 / PAO1))
- Assay Remarks: biochemical
- Test Settings: VIM-1 IC50, fluorescence assay, CCF2-FA substrate, 30 pM enzyme, 2 hours at 25° C.
True if IC50 is below 0.2 nM. False if not; exact matches included in False.

Qu. Take the compound Nc1ccc(-c2ccc(S(=O)(=O)NCC3(O)CCNCC3)c(S(N)(=O)=O)c2-c2nn[nH]n2)cn1 and say whether its IC50 is less than 0.2 nM.
Ans. False

Qu. Take the compound N[C@@H]1CNC[C@@H]1NS(=O)(=O)c1ccc(-c2cnc3cc[nH]c3c2)c(-c2nn[nH]n2)c1S(N)(=O)=O and say whether its IC50 is less than 0.2 nM.
Ans. True

Qu. Take the compound Nc1nc2c(-c3ccc(S(=O)(=O)N4CC[C@@H](N)C4)c(S(N)(=O)=O)c3-c3nnn[nH]3)cccc2s1 and say whether its IC50 is less than 0.2 nM.
Ans. False

Qu. Take the compound NCCNS(=O)(=O)c1ccc(-c2cccc(SC[C@H](O)CN)c2)c(-c2nn[nH]n2)c1S(N)(=O)=O and say whether its IC50 is less than 0.2 nM.
Ans. False

Qu. Take the compound Nc1nc(-c2cccc(-c3ccc(S(=O)(=O)N[C@@H]4CCNC4)c(S(N)(=O)=O)c3-c3nn[nH]n3)c2)c[nH]1 and say whether its IC50 is less than 0.2 nM.
Ans. True

* * *

- Assayed Target: VIM-1 (Pseudomonas aeruginosa (strain ATCC 15692 / DSM 22644 / CIP 104116 / JCM 14847 / LMG 12228 / 1C / PRS 101 / PAO1))
- Assay Remarks: biochemical
- Test Settings: fluorescence assay, CCF2-FA substrate, 30 pM enzyme, 2 hours at 25° C.; read-out: VIM-1 IC50
Value Kind: IC50

Qu. # get_value(readout='IC50', item= NC[C@@H](N)CNS(=O)(=O)c1ccc(-c2cccc(-c3n[nH]c(N)n3)c2)c(-c2nn[nH]n2)c1S(N)(=O)=O )
Ans. 0.199 nM

Qu. # get_value(readout='IC50', item= NC[C@@H]1C[C@@H](NS(=O)(=O)c2ccc(-c3cccc4[nH]c(N)nc34)c(-c3nn[nH]n3)c2S(N)(=O)=O)CN1 )
Ans. 0.16 nM

Qu. # get_value(readout='IC50', item= Nc1nc2c(-c3ccc(S(=O)(=O)NC[C@H]4CCCN4)c(S(N)(=O)=O)c3-c3nnn[nH]3)cccc2s1.O=CO [Example 126, formate] )
Ans. 0.18 nM

* * *

- Assayed Target: UniProt:P52699
- Assay Remarks: biochemical
- Assay type: biochemical
- Test Settings: fluorescence assay, CCF2-FA substrate, 2 pM enzyme, 2 hours at 25° C.; read-out: IMP-1 IC50
Value Kind: pIC50
Answer as the number alone; pIC50 is minus log10 of concentration in mol/L.

Qu. # get_value(readout='pIC50', item= CN(C)C(=O)CNS(=O)(=O)c1ccc(-c2cccc3sc(N)nc23)c(-c2nnn[nH]2)c1S(N)(=O)=O )
Ans. 9.61

Qu. # get_value(readout='pIC50', item= Cn1c(N)nc2c(-c3ccc(S(=O)(=O)NCCCN)c(S(N)(=O)=O)c3-c3nn[nH]n3)cccc21 )
Ans. 9.47

Qu. # get_value(readout='pIC50', item= Nc1ccc(-c2ccc(S(=O)(=O)N[C@@H]3CNC[C@@H]3N)c(S(N)(=O)=O)c2-c2nn[nH]n2)cn1 )
Ans. 9.10

Qu. # get_value(readout='pIC50', item= NCc1nc2c(-c3ccc(S(=O)(=O)N[C@@H](CN)CO)c(S(N)(=O)=O)c3-c3nn[nH]n3)cccc2s1 )
Ans. 9.62

Qu. # get_value(readout='pIC50', item= CN([C@H]1CCNC1)S(=O)(=O)c1ccc(-c2cccc3sc(N)nc23)c(-c2nnn[nH]2)c1S(N)(=O)=O )
Ans. 9.15

Qu. # get_value(readout='pIC50', item= Nc1ccc(-c2ccc(S(=O)(=O)NC[C@H]3CNCCN3)c(S(N)(=O)=O)c2-c2nn[nH]n2)cn1 )
Ans. 9.34

Qu. # get_value(readout='pIC50', item= NCC(F)(F)CNS(=O)(=O)c1ccc(-c2cccc3sc(N)nc23)c(-c2nnn[nH]2)c1S(N)(=O)=O )
Ans. 9.32

* * *

Exercise: for every item that follows, state its recorded pIC50.
- Assayed Target: IMP-1 (Serratia marcescens, UniProt P52699)
- Sequence (P52699 whole entry, looked up, species assumed): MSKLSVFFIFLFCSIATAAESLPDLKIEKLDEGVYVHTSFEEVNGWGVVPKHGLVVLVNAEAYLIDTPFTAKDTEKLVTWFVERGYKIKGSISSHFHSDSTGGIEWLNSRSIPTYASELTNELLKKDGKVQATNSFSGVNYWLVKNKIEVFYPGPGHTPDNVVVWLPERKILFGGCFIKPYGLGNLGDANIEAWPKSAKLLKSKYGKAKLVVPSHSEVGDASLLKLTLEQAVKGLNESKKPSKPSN
- Assay Remarks: biochemical
- Assay type: biochemical
- Test Settings: fluorescence assay, CCF2-FA substrate, 2 pM enzyme, 2 hours at 25° C.; read-out: IMP-1 IC50
Answer as the number alone; pIC50 is minus log10 of concentration in mol/L.

Qu. # get_value(readout='pIC50', item= Nc1nc2c(-c3ccc(S(=O)(=O)NCC4(N)CC4)c(S(N)(=O)=O)c3-c3nn[nH]n3)cccc2s1 )
Ans. 9.00

Qu. # get_value(readout='pIC50', item= Nc1nc2c(-c3ccc(S(=O)(=O)N[C@@H]4C[C@H]4N)c(S(N)(=O)=O)c3-c3nnn[nH]3)cccc2[nH]1 )
Ans. 9.01

Qu. # get_value(readout='pIC50', item= NS(=O)(=O)c1c(S(=O)(=O)NC[C@H]2CNCCN2)ccc(-c2cccc3[nH]cnc23)c1-c1nn[nH]n1 )
Ans. 9.60

Qu. # get_value(readout='pIC50', item= NCC(CN)NS(=O)(=O)c1ccc(-c2cccc(-c3cnc(N)[nH]3)n2)c(-c2nnn[nH]2)c1S(N)(=O)=O )
Ans. 7.75

Qu. # get_value(readout='pIC50', item= Cn1c(N)nc2c(-c3ccc(S(=O)(=O)NC[C@@H](O)CN)c(S(N)(=O)=O)c3-c3nn[nH]n3)cccc21 )
Ans. 9.39

Qu. # get_value(readout='pIC50', item= NCCNS(=O)(=O)c1ccc(-c2cc(F)cc3[nH]c(N)nc23)c(-c2nnn[nH]2)c1S(N)(=O)=O )
Ans. 9.41
